Numbers sourced from patent US7951595B2.

- EXPERIMENTAL_SYSTEM: human SLC17A9 (Homo sapiens, UniProt Q9BYT1, N228S)
- Construct: His6 (from pDEST10 vector); made in house; host or cells: insect cells, baculovirus system (Sf9 named for virus production)
- Sequence (Q9BYT1 1-430 isoform Q9BYT1-2 N222S): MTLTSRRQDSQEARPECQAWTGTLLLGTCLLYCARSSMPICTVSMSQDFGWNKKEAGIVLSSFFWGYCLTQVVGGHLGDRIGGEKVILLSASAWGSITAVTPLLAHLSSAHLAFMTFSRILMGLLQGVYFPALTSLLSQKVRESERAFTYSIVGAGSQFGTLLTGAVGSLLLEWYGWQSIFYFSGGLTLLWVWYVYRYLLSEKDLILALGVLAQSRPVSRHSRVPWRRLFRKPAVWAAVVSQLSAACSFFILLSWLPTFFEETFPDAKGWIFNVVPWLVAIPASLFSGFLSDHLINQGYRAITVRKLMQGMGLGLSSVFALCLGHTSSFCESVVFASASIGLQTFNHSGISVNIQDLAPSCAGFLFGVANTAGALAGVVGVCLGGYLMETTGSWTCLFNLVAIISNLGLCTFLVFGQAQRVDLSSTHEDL
- ASSAY_INFO: Nucleotide transport by human SLC17A9 reconstituted proteoliposomes (valinomycin-induced membrane potential, radiolabelled substrate)
- Format: biochemical
- SETTINGS: SLC17A9 reconstituted proteoliposomes, FIG. 17B
PARAMETER: IC50 (nM)
Note: unit nM is implicit; provide only the numeric part.

# get_value(readout='IC50', item= Cc1cc(-c2ccc(/N=N/c3ccc4c(S(=O)(=O)O)cc(S(=O)(=O)O)c(N)c4c3O)c(C)c2)ccc1/N=N/c1ccc2c(S(=O)(=O)O)cc(S(=O)(=O)O)c(N)c2c1O )
40
